# System: Fibroblast
# protocolNotes: Multiplex assay against human fibroblast
# Format: toxicity, cell-based
# protocolConditions: 12 h, 1 µM, compound concentration 1 uM, replicate 2
Consider the following molecules and their measured Population Fragmented Nuclei (%) readings.

[
  {
    "structureSmiles": "CNC(=O)c1cc(Oc2ccc(NC(=O)Nc3cc(C(C)(C)C)nn3-c3ccc4ncccc4c3)c(F)c2)ccn1",
    "Population Fragmented Nuclei (%)": "56%"
  },
  {
    "structureSmiles": "Cl.Cl.NC1(c2ccc(-c3nc4ccn5c(=O)[nH]nc5c4cc3-c3ccccc3)cc2)CCC1",
    "Population Fragmented Nuclei (%)": "55%"
  },
  {
    "structureSmiles": "CCc1cc2c(cc1CC)CC(NC[C@H](O)c1ccc(O)c3[nH]c(=O)ccc13)C2",
    "Population Fragmented Nuclei (%)": "3%"
  },
  {
    "structureSmiles": "Cl.Cl.Nc1ncnc2c1c(-c1cccc(OCc3ccccc3)c1)cn2[C@H]1C[C@@H](CN2CCC2)C1",
    "Population Fragmented Nuclei (%)": "11%"
  }
]

---

The following molecules are listed with their measured Population Mitotic Cells (%) values.
# Test system: U2OS
# protocolNotes: Multiplex assay against U2OS
# Format: toxicity, cell-based
# protocolConditions: human, 24 h, 1 µM, compound concentration 1 uM, replicate 1
readout: Population Mitotic Cells (%)

[
  {
    "molecule": "CC(C)Oc1ccc(C(=O)N[C@H](CNC(=O)CN(C)C)Cc2ccc(-c3cn4cccc([C@H](C)O)c4n3)cc2)cc1Cl [GSK-923295A]",
    "testedSystem": "U2OS",
    "readout": "Population Mitotic Cells (%)",
    "valueReported": 75
  },
  {
    "molecule": "c1ccc2oc(-c3csc(C4CCN(Cc5nc6ncccc6[nH]5)CC4)n3)cc2c1",
    "testedSystem": "U2OS",
    "readout": "Population Mitotic Cells (%)",
    "valueReported": 60
  },
  {
    "molecule": "Cc1nc(Cc2cccc(C(F)(F)F)c2)sc1-c1ccc(C(N)=O)nc1 [TP-024n]",
    "testedSystem": "U2OS",
    "readout": "Population Mitotic Cells (%)",
    "valueReported": 53
  },
  {
    "molecule": "CCOc1cc2ncc(C#N)c(Nc3ccc(OCc4cccc(F)c4)c(Cl)c3)c2cc1NC(=O)/C=C/CN(C)C",
    "testedSystem": "U2OS",
    "readout": "Population Mitotic Cells (%)",
    "valueReported": 67
  },
  {
    "molecule": "CCc1cc2c(cc1CC)CC(NC[C@H](O)c1ccc(O)c3[nH]c(=O)ccc13)C2",
    "testedSystem": "U2OS",
    "readout": "Population Mitotic Cells (%)",
    "valueReported": 63
  },
  {
    "molecule": "COc1ccc(NS(=O)(=O)c2sc3ccc(Cl)cc3c2C)cc1N1CCNCC1.Cl",
    "testedSystem": "U2OS",
    "readout": "Population Mitotic Cells (%)",
    "valueReported": 48
  },
  {
    "molecule": "Cc1cn(-c2cc(NC(=O)c3ccc4c(c3)CN(c3cncnc3)C[C@@H]4C)cc(C(F)(F)F)c2)cn1",
    "testedSystem": "U2OS",
    "readout": "Population Mitotic Cells (%)",
    "valueReported": 55
  },
  {
    "molecule": "CC(C)(C)c1cnc(CSc2cnc(NC(=O)C3CCNCC3)s2)o1",
    "testedSystem": "U2OS",
    "readout": "Population Mitotic Cells (%)",
    "valueReported": 17
  },
  {
    "molecule": "CCCn1c(=O)c2[nH]c(C34CC5CC(CC3C5)C4)nc2n(CCC)c1=O",
    "testedSystem": "U2OS",
    "readout": "Population Mitotic Cells (%)",
    "valueReported": 50
  },
  {
    "molecule": "CCC(=O)O[C@]1(C(=O)SCF)[C@H](C)C[C@H]2[C@@H]3C[C@H](F)C4=CC(=O)C=C[C@]4(C)[C@@]3(F)[C@@H](O)C[C@@]21C [FLUTICASONE PROPIONATE]",
    "testedSystem": "U2OS",
    "readout": "Population Mitotic Cells (%)",
    "valueReported": 62
  },
  {
    "molecule": "CN(C)CCOc1ccc(-c2nc(-c3ccncc3)c(-c3ccc4c(c3)CC/C4=N\\O)[nH]2)cc1",
    "testedSystem": "U2OS",
    "readout": "Population Mitotic Cells (%)",
    "valueReported": 14
  },
  {
    "molecule": "CC(C)N1CCC(C)(C)c2cc(C#Cc3ccc(C(=O)O)cc3)ccc21",
    "testedSystem": "U2OS",
    "readout": "Population Mitotic Cells (%)",
    "valueReported": 45
  },
  {
    "molecule": "COc1cc2c(NC3CCN(C(C)C)CC3)nc(N3CCC(F)(F)CC3)nc2cc1OCCCN1CCCC1",
    "testedSystem": "U2OS",
    "readout": "Population Mitotic Cells (%)",
    "valueReported": 68
  },
  {
    "molecule": "CNC(=O)c1cc(Oc2ccc(NC(=O)Nc3cc(C(C)(C)C)nn3-c3ccc4ncccc4c3)c(F)c2)ccn1",
    "testedSystem": "U2OS",
    "readout": "Population Mitotic Cells (%)",
    "valueReported": 75
  },
  {
    "molecule": "Cl.Cl.NC1(c2ccc(-c3nc4ccn5c(=O)[nH]nc5c4cc3-c3ccccc3)cc2)CCC1",
    "testedSystem": "U2OS",
    "readout": "Population Mitotic Cells (%)",
    "valueReported": 50
  },
  {
    "molecule": "CN(C)C/C=C/C(=O)Nc1cc2c(Nc3ccc(F)c(Cl)c3)ncnc2cc1O[C@H]1CCOC1.O=C(O)/C=C\\C(=O)O.O=C(O)/C=C\\C(=O)O [AFATINIB DIMALEATE]",
    "testedSystem": "U2OS",
    "readout": "Population Mitotic Cells (%)",
    "valueReported": 27
  },
  {
    "molecule": "Cl.Cl.Nc1ncnc2c1c(-c1cccc(OCc3ccccc3)c1)cn2[C@H]1C[C@@H](CN2CCC2)C1",
    "testedSystem": "U2OS",
    "readout": "Population Mitotic Cells (%)",
    "valueReported": 43
  },
  {
    "molecule": "N#Cc1cnc(Nc2cc(NC[C@H]3CNCCO3)c(C(F)(F)F)cn2)cn1",
    "testedSystem": "U2OS",
    "readout": "Population Mitotic Cells (%)",
    "valueReported": 94
  },
  {
    "molecule": "Nc1ccc(C(=O)Nc2cccc(-c3nc(N4CCOCC4)c4oc5ncccc5c4n3)c2)cn1",
    "testedSystem": "U2OS",
    "readout": "Population Mitotic Cells (%)",
    "valueReported": 53
  },
  {
    "molecule": "CC(=O)c1cc(-c2cc(C(=O)NC3CC3)ccc2C)c2ncccn12",
    "testedSystem": "U2OS",
    "readout": "Population Mitotic Cells (%)",
    "valueReported": 56
  },
  {
    "molecule": "CCn1c(-c2nonc2N)nc2cnc(Oc3cccc(NC(=O)c4ccc(OCCN5CCOCC5)cc4)c3)cc21 [GSK-269962A]",
    "testedSystem": "U2OS",
    "readout": "Population Mitotic Cells (%)",
    "valueReported": 56
  },
  {
    "molecule": "O=C(O)c1ccc2cc(-c3ccc(O)c(C45CC6CC(CC(C6)C4)C5)c3)ccc2c1",
    "testedSystem": "U2OS",
    "readout": "Population Mitotic Cells (%)",
    "valueReported": 70
  },
  {
    "molecule": "Cc1cc2c(cc1N1C(=O)c3cccc4c(CCCO)ccc(c34)C1=O)n(C)c(=O)n2C",
    "testedSystem": "U2OS",
    "readout": "Population Mitotic Cells (%)",
    "valueReported": 61
  },
  {
    "molecule": "Nc1nc2c(c(N3CCNCC3)n1)CCC1=C2[C@@H]2CCCC[C@@H]2O1",
    "testedSystem": "U2OS",
    "readout": "Population Mitotic Cells (%)",
    "valueReported": 60
  },
  {
    "molecule": "CNc1oc(-c2cccc3ccccc23)nc1C#N",
    "testedSystem": "U2OS",
    "readout": "Population Mitotic Cells (%)",
    "valueReported": 46
  },
  {
    "molecule": "CNC(=O)c1nn(C)c2c1C(C)(C)Cc1cnc(Nc3ccc(N4CCN(C)CC4)cc3)nc1-2",
    "testedSystem": "U2OS",
    "readout": "Population Mitotic Cells (%)",
    "valueReported": 14
  },
  {
    "molecule": "COc1cc2c(Nc3ccc(NC(=O)c4ccccc4)cc3)ncnc2cc1OCCCN1CCOCC1",
    "testedSystem": "U2OS",
    "readout": "Population Mitotic Cells (%)",
    "valueReported": 80
  }
]

Origin of the recorded values: ChEMBL document CHEMBL4689842
